Give GI50 for every item shown.
Tested on: UACC-62
PROTOCOL: NCI tumour cell line growth inhibition, 48 h
The source made the active and inactive calls. No stated cut-off is given here; in the data, active = GI50 up to about 1.1 µM and inactive = higher.

CC(C)CC(NC(=O)OC(C)(C)C)C(=O)Nc1ccc(Nc2nc(F)nc(-c3c4ccccc4cn3C)n2)cc1 (configuration not stated); > 100 µM (inactive)

For the 6 compounds below, give their GI50 values.
1. CC1(C)O/C(=C\c2ccccc2)C(=O)/C(=C/c2ccccc2)O1
2. O=C1CCCCC/C1=C\c1cccc(Cl)c1
3. O=Cc1cc(O)ccc1Br
4. O=C(O)c1nc2cc(Cl)ccc2[nH]c1=O
5. COc1nc2c(N3CCCC3)nc(N3CCNCC3)nc2nc1NCc1ccccc1
6. CC1=C(C)SC(=C2Sc3[n-]c(=O)[nH]c(=O)c3S2)S1.CCCC[N+](CCCC)(CCCC)CCCC

Resp:
1. 25.8 µM (inactive)
2. 45.9 µM (inactive)
3. 6.9 µM (inactive)
4. > 100 µM (inactive)
5. 1.86 µM (inactive)
6. 27.2 µM (inactive)
